test system: HEL cells; assay: Cytotoxicity, alteration of cell morphology in HEL cell culture; format: cell-based, human; conditions: minimum cytotoxic concentration causing microscopically detectable alteration of cell morphology
quantity-name: Cytotoxicity, Cell morphology MCC (μM)

[[record]]
compound = "O=c1c2ccccc2ncn1CCCn1c(=O)ccn(CCCCCOc2ccc(Br)cc2)c1=O"
quantity_name = "Cytotoxicity, Cell morphology MCC"
relation_qualifier = "="
reported = 20

[[record]]
compound = "O=c1c2ccccc2ncn1CCn1c(=O)ccn(CCCCCCCCCCOc2ccc(Br)cc2)c1=O"
quantity_name = "Cytotoxicity, Cell morphology MCC"
relation_qualifier = ">"
reported = 100

[[record]]
compound = "O=c1[nH]c(=O)n([C@H]2C[C@H](O)[C@@H](CO)O2)cc1/C=C/Br [Brivudine, reference compound]"
quantity_name = "Cytotoxicity, Cell morphology MCC"
relation_qualifier = ">"
reported = 300

[[record]]
compound = "O=c1c2ccc(Cl)cc2ncn1CCn1c(=O)ccn(CCCCCOc2ccc(Br)cc2)c1=O"
quantity_name = "Cytotoxicity, Cell morphology MCC"
relation_qualifier = "="
reported = 20

[[record]]
compound = "Nc1ccn(C[C@@H](CO)OCP(=O)(O)O)c(=O)n1 [Cidofovir, reference compound]"
quantity_name = "Cytotoxicity, Cell morphology MCC"
relation_qualifier = "="
reported = 300

[[record]]
compound = "O=c1c2ccccc2ncn1CCn1c(=O)ccn(CCCOc2ccc(Br)cc2)c1=O"
quantity_name = "Cytotoxicity, Cell morphology MCC"
relation_qualifier = "="
reported = 100

[[record]]
compound = "Cc1ccc2ncn(CCn3c(=O)ccn(CCCCCOc4ccc(Br)cc4)c3=O)c(=O)c2c1"
quantity_name = "Cytotoxicity, Cell morphology MCC"
relation_qualifier = ">"
reported = 100

[[record]]
compound = "Nc1nc(O)c2ncn(COC(CO)CO)c2n1 [Ganciclovir, reference compound]"
quantity_name = "Cytotoxicity, Cell morphology MCC"
relation_qualifier = "="
reported = 350

[[record]]
compound = "O=c1c2ccccc2ncn1CCn1c(=O)ccn(CCCCOc2ccc(Br)cc2)c1=O"
quantity_name = "Cytotoxicity, Cell morphology MCC"
relation_qualifier = "="
reported = 20

[[record]]
compound = "O=c1c2ccccc2ncn1CCn1c(=O)ccn(CCCCCCCCOc2ccc(Br)cc2)c1=O"
quantity_name = "Cytotoxicity, Cell morphology MCC"
relation_qualifier = ">"
reported = 100

[[record]]
compound = "O=c1c2ccccc2ncn1CCn1c(=O)ccn(CCCCCCOc2ccc(Br)cc2)c1=O"
quantity_name = "Cytotoxicity, Cell morphology MCC"
relation_qualifier = "="
reported = 100

[[record]]
compound = "O=c1c2ccccc2ncn1CCn1c(=O)ccn(CCCCCCCCCCCCOc2ccc(Br)cc2)c1=O"
quantity_name = "Cytotoxicity, Cell morphology MCC"
relation_qualifier = "≥"
reported = 100

[[record]]
compound = "O=c1c2ccccc2ncn1CCn1c(=O)ccn(CCCCCOc2ccc(Br)cc2)c1=O"
quantity_name = "Cytotoxicity, Cell morphology MCC"
relation_qualifier = "="
reported = 100


The reported measurements were obtained from paper PMC7604896.
